Target of assay: T1, human BCMA with a His tag (ACROBiosystems, Catalog No.: BCA-H522y) (human)
T1 construct: Bought His-tagged recombinant protein; also called huBCMA-His; Recombinant human BCMA
T1 chain: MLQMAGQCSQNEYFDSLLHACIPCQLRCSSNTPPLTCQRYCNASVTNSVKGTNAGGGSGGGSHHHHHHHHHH
Assay comment: SPR, Biacore T200
Catalogue of Kd readings, one per entry.
Readout kind: Kd (nM)

>>> test_result("SCT-Aa05(h/h) (antibody, V domains shown, Full IgG format, chimeric: human IgG1 heavy chain constant region, human kappa light chain constant region) VH: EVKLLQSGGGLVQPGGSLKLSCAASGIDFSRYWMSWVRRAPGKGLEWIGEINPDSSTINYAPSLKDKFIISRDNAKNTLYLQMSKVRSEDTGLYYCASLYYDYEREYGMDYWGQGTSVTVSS VL: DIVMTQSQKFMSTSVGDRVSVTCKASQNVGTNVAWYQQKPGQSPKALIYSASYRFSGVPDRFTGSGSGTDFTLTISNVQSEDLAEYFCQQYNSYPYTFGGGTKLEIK")
9.93
>>> test_result("SCT-Aa01(h/h) (antibody, V domains shown, Full IgG format, chimeric: human IgG1 heavy chain constant region, human kappa light chain constant region) VH: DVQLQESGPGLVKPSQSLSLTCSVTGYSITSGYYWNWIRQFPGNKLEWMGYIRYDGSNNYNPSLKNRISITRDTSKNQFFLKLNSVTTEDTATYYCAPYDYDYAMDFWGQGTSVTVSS VL: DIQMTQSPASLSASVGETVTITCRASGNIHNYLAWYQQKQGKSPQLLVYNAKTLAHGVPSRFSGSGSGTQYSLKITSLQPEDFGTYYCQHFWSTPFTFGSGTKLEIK")
43.4
>>> test_result("SCT-Aa06(m/m) (antibody, V domains shown, Full IgG format: mouse IgG1 heavy chain constant region, mouse kappa light chain constant region) VH: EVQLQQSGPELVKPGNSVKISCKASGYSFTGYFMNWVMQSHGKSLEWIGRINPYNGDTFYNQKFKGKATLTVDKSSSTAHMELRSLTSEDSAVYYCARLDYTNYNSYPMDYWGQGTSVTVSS VL: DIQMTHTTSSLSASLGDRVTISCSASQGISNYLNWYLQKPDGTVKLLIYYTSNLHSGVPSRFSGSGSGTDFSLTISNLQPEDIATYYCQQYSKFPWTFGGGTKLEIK")
5.16
